Catalogue of TGI readings, one per entry.
- Test system: KM12 colon
- assay text: NCI tumour cell line growth inhibition, 48 h

See these solved cases before continuing.
compound: COc1cc2c(cc1OC)[C@]1(O)C(=O)c3ccc4c(c3O[C@@H]1CO2)C[C@H](C(C)(C)O)O4
TGI: > 100 µM
--
compound: CCOC(=O)NC(=O)c1cn(-c2ccc(CCOC(=O)CCCCCCCCC(=O)OCCc3ccc(-n4cc(C(=O)NC(=O)OCC)c(=O)[nH]c4=O)cc3)cc2)c(=O)[nH]c1=O
TGI: > 100 µM
--
compound: CCCCCn1ncc(-c2c(O)c(O)cc3c(O)c(-c4c(C)cc5c(-c6cnn(CCCCC)n6)c(O)c(O)cc5c4O)c(C)cc23)n1
TGI: 5.25 µM
--
compound: NC(N)=NS(=O)(=O)c1ccc(NC(=O)c2ccc(Cl)c3c(Nc4ccc(S(=O)(=O)N=C(N)N)cc4)c4ccccc4nc23)cc1
TGI: > 100 µM
--
compound: CN1C(=O)c2cccc3c([N+](=O)[O-])ccc(c23)C1=O
TGI: 18.3 µM
--
compound: C[C@]1(O)CC(=O)[C@]2(O)C3=C(C=C[C@]2(O)C1)C(=O)c1c(O)cccc1C3=O
TGI: 40.7 µM

For O=C(Nc1ccccc1)N1CC(CN2CCN(c3ccccc3)CC2)OC1=O (stereo unspecified) the compound record lists TGI as > 100 µM

// TGI value for CC1(C)[C@@H]2C[C@H]1C(Cc1ccccc1C[C@H]1c3cc(-c4ccccn4)ncc3[C@H]3C[C@@H]1C3(C)C)c1cc(-c3ccccn3)ncc12 (stereo partly specified) : 13.4 µM

Recorded result, OC(CCN1CCN(CCOC(c2ccc(F)cc2)c2ccc(F)cc2)CC1)c1ccccc1 (stereo unspecified) , TGI: 44 µM

Briefly, TGI measured for COc1cc(CSc2ccc(O)cc2)cc(O)c1O : 91.9 µM

// recorded TGI for O=c1[nH]nc2c3n[nH]c(=O)n3c3ccccc3n12 : > 100 µM

The reported value for CN1CCN(c2ccc(NC3=C(Cl)C(=O)c4ncccc4C3=O)cc2C(F)(F)F)CC1 in terms of TGI is 30.1 µM

Entry under test: CCCC(=O)C(CC)/C(CCC(=O)N(Cc1ccccc1)Cc1ccccc1)=N/NC(=O)C[N+](C)(C)C (stereo unspecified) . Its TGI was > 100 µM

Entry CCOC(=O)C1=C(C)N2CCCOC2(C)C(C(=O)OC)C1c1cccc([N+](=O)[O-])c1 (stereo unspecified) , TGI reported as > 100 µM

TGI reading for N#C/C(=C/c1cccs1)c1cccs1 : > 100 µM

Noted for Cc1ccc(S(=O)(=O)NC(C)C(=O)O)cc1 (stereo unspecified) : its TGI reads > 100 µM

# compound S=c1scc(-c2ccc(Cl)cc2)n1OC1CCCC1 ; its TGI = > 100 µM

The compound listed as CN1NC(c2ccccc2)=C(C#N)C(=O)CC1c1ccccc1Cl (stereo unspecified) shows TGI equal to > 100 µM

Summary for this compound, N=c1nc(N)nc(N)n1-c1ccc(S(N)(=O)=O)cc1 : TGI is > 100 µM

Reference source: PubChem BioAssay (NCI)
